This listing pairs binders with measured log(IC50, nM).
target: T1, HLA-A*02:01 (human)
T1 construct: The form of the HLA molecule in the fluorescence polarization assay is not described; also called HLA-A2
test-summary: fluorescence polarization-based competitive peptide-binding assay

1. IILVAVPHV [EXOC8 Q656P AAS peptide IILVAVPHV (MEL218)] ... 3.06 log(IC50, nM)
2. KLANPLPYT (Synthetic nonamer carrying a tumor amino acid substitution) [SMOX K499N AAS peptide KLANPLPYT (MEL218)] ... 3.73 log(IC50, nM)

So for KLMNIQQKL (Synthetic nonamer carrying a tumor amino acid substitution) [AKAP13 Q285K AAS peptide KLMNIQQKL (MEL38)] , the logged log(IC50, nM) turned out to be 3.07 log(IC50, nM)
